Test system: NCI-H23 lung
TEST: NCI tumour cell line growth inhibition, 48 h
RECORDED_METRIC: TGI (µM)
Enter your answer as a number in µM; do not include the unit.

Query: Tell me the measured TGI of COc1cccc(-c2nc(-c3ccc(NS(=O)(=O)c4ccccc4)cc3)[nH]c2-c2ccnc(Br)c2)c1 , please.
Response: 17.2

Query: Tell me the measured TGI of c1ccc(Oc2c3ccccc3nc3ccccc23)cc1 , please.
Response: 14.3

###

Test system: HT29 colon
TEST: NCI tumour cell line growth inhibition, 48 h
RECORDED_METRIC: TGI (µM)
Enter your answer as a number in µM; do not include the unit.

Query: Report TGI for O=C(Nc1ccccc1)O/N=C1/CCCC/C1=C\c1ccccc1 tested on HT29 colon.
Response: 95.1

Query: Report TGI for CCCCCCCCCCCCOCCCCCCCCC/C=C/c1ccc2c(c1)OCCOCCOCCOCCO2 tested on HT29 colon.
Response: 45.4

Query: Report TGI for O=C1C(Cl)=C(Oc2ccccc2)C(=O)c2ccccc21 tested on HT29 colon.
Response: 12.3

Query: Report TGI for C[C@@H](Oc1cc(-c2cnn(C3CCNCC3)c2)cnc1N)c1c(Cl)ccc(F)c1Cl tested on HT29 colon.
Response: 2.31
